self-cleavage overview
B1: LINE1-full (parent)
chain: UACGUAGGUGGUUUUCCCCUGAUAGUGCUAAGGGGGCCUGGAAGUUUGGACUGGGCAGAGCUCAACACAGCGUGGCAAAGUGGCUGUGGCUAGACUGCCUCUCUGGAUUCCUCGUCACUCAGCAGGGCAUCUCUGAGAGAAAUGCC

variants of: B1; assay: self-cleavage, relative activity (ratio to wild type); higher = more cleavage; in vitro, sequencing; the parent is a self-cleaving ribozyme

mutation_label="U13C U91A" reading=0.85
mutation_label="U85G A142G" reading=0.1

Query: Bench note: what self-cleavage did C111U A136G show?
Result: 1.26

Query: Which self-cleavage reading was recorded for the variant U12C G93A ?
Result: 0.08

Query: May I ask what self-cleavage has been recorded for A31G U81C ?
Result: 0.69

Query: Given the entry U52G C118U , report its measured self-cleavage.
Result: 2.3

Query: Quick one: self-cleavage for U12C G139A ?
Result: 0.94

Query: Requested read-out: self-cleavage. Entry: U13C U130C
Result: 1.2

Query: Bench note: what self-cleavage did G60A U73A show?
Result: 0.02

Query: Item G33U A136U has what recorded self-cleavage?
Result: 1.27

Query: Suppose we examine the variant U14C U81A ; what self-cleavage value has been reported?
Result: 1.34

Query: Request the reported self-cleavage associated with U1G U13G
Result: 1.14

Query: Requested read-out: self-cleavage. Entry: A79G U109G
Result: 0.8

Query: I am curious: what self-cleavage value has been reported for A31G A142G ?
Result: 1.17

Query: For the variant shown here, C76U G105C , give the reported self-cleavage.
Result: 2.51

Query: // self-cleavage lookup, key: A6C A121U
Result: 1.18

From: the RNAGym collection of RNA variant scans (doi:10.7554/elife.90254)
